Recorded DC50 by entry
system_name: BCL-XL (Homo sapiens, UniProt Q07817)
Construct: endogenous in cells; host or cells: MOLT-4
Sequence (Q07817 whole entry): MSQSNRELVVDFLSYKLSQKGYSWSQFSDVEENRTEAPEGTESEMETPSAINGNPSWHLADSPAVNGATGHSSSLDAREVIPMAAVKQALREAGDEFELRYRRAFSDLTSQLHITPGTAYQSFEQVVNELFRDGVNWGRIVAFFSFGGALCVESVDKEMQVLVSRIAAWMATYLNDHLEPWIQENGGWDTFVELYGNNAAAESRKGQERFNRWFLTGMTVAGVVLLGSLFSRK
assay_remarks: BCL-XL degradation assay, western blot in MOLT-4 cells, 16 h
Assay type: cell-based
study_conditions: western blot, MOLT-4 cells, 16 h; read-out: Bcl-xL WB in MOLT-4 degradation 16 h: Mean external-Abs DC50

Cc1cc(N(C)c2ccc(-c3cnn(CC45CC6CC(CC(C6)C4)C5)c3C)c(C(=O)NS(=O)(=O)c3ccc(N4CCC(C(=O)N[C@H](C(=O)N5C[C@H](O)C[C@H]5C(=O)N[C@@H](C)c5ccc(-c6scnc6C)cc5)C(C)(C)C)CC4)cc3)n2)nnc1Nc1nc2ccccc2s1 [I-246]
< 10 nM
Cc1ncsc1-c1ccc([C@H](C)NC(=O)[C@@H]2C[C@@H](O)CN2C(=O)[C@@H](NC(=O)C2(F)CC2)C(C)(C)C)c(OCC(=O)N2CCN(CC[C@H](CSc3ccccc3)Nc3ccc(S(=O)(=O)NC(=O)c4ccc(N5CCN(CC6=C(c7ccc(Cl)cc7)CCC(C)(C)C6)CC5)cc4)cc3S(=O)(=O)C(F)(F)F)CC2)c1 [I-112]
500 to 1000 nM
Cc1ncsc1-c1ccc([C@H](C)NC(=O)[C@@H]2C[C@@H](O)CN2C(=O)[C@@H](NC(=O)CN2CC(N3CCC(NC(=O)c4nc(N5CCc6cccc(C(=O)Nc7nc8ccccc8s7)c6C5)ccc4-c4cnn(CC5CCCCC5)c4C)CC3)C2)C(C)(C)C)cc1 [I-176]
10 to 100 nM

# input Identify measured DC50 corresponding to Cc1ncsc1-c1ccc([C@H](C)NC(=O)[C@@H]2C[C@@H](O)CN2C(=O)C(c2cc(OCC3CCN(CCNC(=O)c4nc(N5CCc6cccc(C(=O)Nc7nc8ccccc8s7)c6C5)ccc4-c4cnn(CC5CCCCC5)c4C)CC3)no2)C(C)C)cc1 (stereo partly shown) [I-175]
# output > 1000 nM

# input Identify measured DC50 corresponding to Cc1ncsc1-c1ccc([C@H](C)NC(=O)[C@@H]2C[C@@H](O)CN2C(=O)[C@@H](NC(=O)CCCCCCCC(=O)N(C)CCCc2cccc(F)c2OCCCc2sc(N3CCc4cccc(C(=O)Nc5nc6ccccc6s5)c4C3)nc2C(=O)O)C(C)(C)C)cc1 [I-11]
# output 100 to 500 nM

# input Identify measured DC50 corresponding to Cc1ncsc1-c1ccc(CNC(=O)[C@@H]2C[C@@H](O)CN2C(=O)[C@@H](NC(=O)C2(F)CC2)C(C)(C)C)c(OCCC2CN(CC[C@H](CSc3ccccc3)Nc3ccc(S(=O)(=O)NC(=O)c4ccc(N5CCN(CC6=C(c7ccc(Cl)cc7)CCC(C)(C)C6)CC5)cc4)cc3S(=O)(=O)C(F)(F)F)C2)c1 [I-208]
# output 500 to 1000 nM

# input Identify measured DC50 corresponding to Cc1ncsc1-c1ccc([C@H](C)NC(=O)[C@@H]2C[C@@H](O)CN2C(=O)[C@H](c2cc(OC3CCN(CCCS(=O)(=O)NC(=O)c4nc(N5CCc6cccc(C(=O)Nc7nc8ccccc8s7)c6C5)ccc4-c4cnn(CC5CCCCC5)c4C)CC3)no2)C(C)C)cc1 [I-174]
# output > 1000 nM

Where these numbers come from: patent US20250197387A1
